Would you mind telling me the reported Th-T fluorescence of Aβ42 with compound, mean of three wells (Fig. 7a source data) of each entry?
Molecular target: Aβ42 (Homo sapiens)
Sequence (P05067 672-713): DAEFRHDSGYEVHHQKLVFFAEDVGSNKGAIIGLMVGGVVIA
Experiment: Th-T (thioflavin-T) assay of Aβ42 aggregation
Format: biochemical
Details: concentration 50, unit not given; time-course reading M130
Response field accepts a number only; no unit should be typed.

Reported Th-T fluorescence of Aβ42 with compound, mean of three wells (Fig. 7a source data) of C=C1CCC2C(C)(CCC=C(C)C)C(O)CCC2(C)C1Cc1c(OC)oc(CO)c(C)c1=O (centres unmarked) : 1.591

Reported Th-T fluorescence of Aβ42 with compound, mean of three wells (Fig. 7a source data) of C=C1CCC2C(C)(CCC=C(C)C)C(O)CCC2(C)C1Cc1c(OC)oc(CO)c(C(=O)OC)c1=O (centres unmarked) : 0.4748

Reported Th-T fluorescence of Aβ42 with compound, mean of three wells (Fig. 7a source data) of C=C1CCC2C(C)(CCC=C(C)C)C(O)CCC2(C)C1Cc1c(OC)oc(C)c(C(=O)OC)c1=O (centres unmarked) : 0.8634

Reported Th-T fluorescence of Aβ42 with compound, mean of three wells (Fig. 7a source data) of `C=C1CC[C@@H]2[C@](C)(CC[C@H]3O[C@H](C=C(C)C)C[C@@]23C)[C@@H]1Cc1c(OC)oc(CO)c(C(=O)OC)c1=O` : 0.4954

Reported Th-T fluorescence of Aβ42 with compound, mean of three wells (Fig. 7a source data) of `C=C1CC[C@@H]2[C@](C)(CC[C@H]3O[C@H](C=C(C)C)C[C@@]23C)[C@@H]1Cc1c(OC)oc(CO)c(C)c1=O` : 2.116
